Below, each entry is listed alongside its reported pIC50.
target_of_assay: hepsin (Homo sapiens, UniProt P05981)
Sequence (P05981 163-417 limits assumed): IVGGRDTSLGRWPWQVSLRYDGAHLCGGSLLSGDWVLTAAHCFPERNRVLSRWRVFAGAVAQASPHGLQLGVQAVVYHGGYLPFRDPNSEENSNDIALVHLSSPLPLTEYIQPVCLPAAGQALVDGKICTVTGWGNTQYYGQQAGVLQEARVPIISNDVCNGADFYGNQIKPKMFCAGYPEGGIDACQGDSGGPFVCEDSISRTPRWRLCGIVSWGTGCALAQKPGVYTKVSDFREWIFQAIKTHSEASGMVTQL
Sequence (P05981 45-162 partner limits assumed): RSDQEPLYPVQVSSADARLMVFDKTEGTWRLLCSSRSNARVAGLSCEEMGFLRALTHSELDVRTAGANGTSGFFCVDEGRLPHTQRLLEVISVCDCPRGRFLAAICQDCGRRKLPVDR
Please keep in mind that pIC50 is minus log10 of the molar concentration; only the number is needed.

Solved entries:
1) CC[C@H](C)[C@H](NC(C)=O)C(=O)N[C@H](Cc1c[nH]c2ccccc12)C(=O)N[C@@H](Cc1ccccc1)C(=O)N[C@@H](CCCNC(=N)N)C(=O)c1nc2ccccc2s1 = 7.92
2) CC[C@H](C)[C@H](NC(C)=O)C(=O)N[C@@H](CCSC)C(=O)N[C@@H](Cc1ccccc1)C(=O)N[C@@H](CCCNC(=N)N)C(=O)c1nc2ccccc2s1 = 8.89

Next compound, please.
Give measured pIC50 for "CC[C@H](C)[C@H](NC(C)=O)C(=O)N[C@@H](CCSC)C(=O)N[C@@H](Cc1ccccc1)C(=O)N[C@H](CCCNC(=N)N)C(=O)c1nc2ccccc2s1" (hepsin (Homo sapiens, UniProt P05981)). 8.50

* * *

target_of_assay: hepsin (Homo sapiens, UniProt P05981)
metric_name: pIC50
Please keep in mind that pIC50 is minus log10 of the molar concentration; only the number is needed.

Solved entries:
1) CC[C@H](C)[C@H](NC(C)=O)C(=O)N[C@H](C(=O)N[C@@H](Cc1ccccc1)C(=O)N[C@@H](CCCNC(=N)N)C(=O)c1nc2ccccc2s1)[C@@H](C)O [MM4028, Ac-ITFR-kbt] = 9.07
2) CC[C@H](C)[C@H](NC(C)=O)C(=O)N[C@@H](CO)C(=O)N[C@@H](Cc1ccccc1)C(=O)N[C@@H](CCCNC(=N)N)C(=O)c1nc2ccccc2s1 [MM4009, Ac-ISFR-kbt] = 9.07
3) CC[C@H](C)[C@H](NC(C)=O)C(=O)N[C@@H](CCC(=O)O)C(=O)N[C@@H](Cc1ccccc1)C(=O)N[C@@H](CCCNC(=N)N)C(=O)c1nc2ccccc2s1 [MM4037, Ac-IEFR-kbt] = 9.46
4) CC[C@H](C)[C@H](NC(C)=O)C(=O)N[C@@H](CCC(N)=O)C(=O)N[C@@H](C)C(=O)N[C@@H](CCCNC(=N)N)C(=O)c1nc2ccccc2s1 [MM3178, Ac-IQAR-kbt] = 8.89

Give measured pIC50 for CC[C@H](C)[C@H](NC(C)=O)C(=O)N[C@@H](CCC(N)=O)C(=O)N[C@H](C(=O)N[C@H](CCCNC(=N)N)C(=O)c1nc2ccccc2s1)C(C)C [MM3180-1, Ac-IQVdR-kbt] (hepsin (Homo sapiens, UniProt P05981)). 8.76

* * *

target_of_assay: matriptase (Homo sapiens)
Sequence (Q9Y5Y6 615-855): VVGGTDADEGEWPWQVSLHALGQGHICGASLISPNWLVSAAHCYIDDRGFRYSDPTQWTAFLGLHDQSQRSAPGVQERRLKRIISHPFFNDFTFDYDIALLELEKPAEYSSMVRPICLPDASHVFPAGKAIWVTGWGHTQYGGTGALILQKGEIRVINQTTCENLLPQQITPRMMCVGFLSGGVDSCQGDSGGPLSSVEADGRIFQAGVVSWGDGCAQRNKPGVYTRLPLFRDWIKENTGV
metric_name: IC50 (nM)
Lab book: enter the figure in nM, no units written.

1) CC[C@H](C)[C@H](NC(C)=O)C(=O)N[C@@H](CCC(N)=O)C(=O)N[C@@H](CO)C(=O)N[C@@H](CCCNC(=N)N)C(=O)c1nc2ccccc2s1 = 1.3
2) CC[C@H](C)[C@H](NC(C)=O)C(=O)N[C@@H](CCSC)C(=O)N[C@@H](Cc1ccccc1)C(=O)N[C@H](CCCNC(=N)N)C(=O)c1nc2ccccc2s1 = 16.1

Next compound, please.
Give a short answer stating reported IC50 for "CC[C@H](C)[C@H](NC(C)=O)C(=O)N[C@H](C(=O)N[C@@H](Cc1ccccc1)C(=O)N[C@@H](CCCNC(=N)N)C(=O)c1nc2ccccc2s1)[C@@H](C)O" . 4.7

* * *

As a worked illustration, we turn to H1N1 Fold inhibition @ 1 μM data collected for influenza A virus strain A/California/4/2009 (pdmH1N1).
Answer using only a numeral; do not append any unit.

1) CC(=O)N1CCC[C@H]1C(=O)N[C@@H](CO)C(=O)N[C@@H](CCCCN)C(=O)N[C@@H](CCCNC(=N)N)C(=O)c1nc2ccccc2s1 = 1
2) CC[C@H](C)[C@H](NC(C)=O)C(=O)N[C@@H](CCC(N)=O)C(=O)N[C@H](C(=O)N[C@@H](CCCNC(=N)N)C(=O)c1nc2ccccc2s1)C(C)C = 135

Next molecule, please.
Give a short answer stating reported H1N1 Fold inhibition @ 1 μM for "CC[C@H](C)[C@H](NC(C)=O)C(=O)N[C@@H](CO)C(=O)N[C@@H](Cc1ccccc1)C(=O)N[C@@H](CCCNC(=N)N)C(=O)c1nc2ccccc2s1" . 3

* * *

As a worked illustration, we turn to H1N1 Fold inhibition @ 1 μM data collected for influenza A virus strain A/California/4/2009 (pdmH1N1).
Answer using only a numeral; do not append any unit.

1. CSCC[C@H](NC(C)=O)C(=O)N[C@@H](CCC(N)=O)C(=O)N[C@@H](Cc1ccccc1)C(=O)N[C@@H](CCCNC(=N)N)C(=O)c1nc2ccccc2s1 [MM3130, Ac-MQFR-kbt] = 27

Give a short answer stating reported H1N1 Fold inhibition @ 1 μM for N=C(N)NCCC[C@H](NC(=O)[C@H](Cc1ccccc1)NC(=O)[C@H](CCC(N)=O)NC(=O)c1ccccc1)C(=O)c1nc2ccccc2s1 [CA1043, Bz-QFR-kbt] . 968

Give a short answer stating reported H1N1 Fold inhibition @ 1 μM for N=C(N)NCCC[C@H](NC(=O)[C@H](Cc1ccccc1)NC(=O)[C@H](CCC(N)=O)NS(=O)(=O)C1CC1)C(=O)c1nc2ccccc2s1 [MF1104, CypSO2-QFR-kbt] . 617

Give a short answer stating reported H1N1 Fold inhibition @ 1 μM for N=C(N)NCCC[C@H](NC(=O)[C@H](Cc1ccccc1)NC(=O)[C@H](CCC(N)=O)NC(=O)OCc1ccccc1)C(=O)c1nc2ccccc2s1 [ZFH9141, Cbz-QFR-kbt] . 578

Give a short answer stating reported H1N1 Fold inhibition @ 1 μM for CC(=O)NCC(=O)N[C@@H](CCC(N)=O)C(=O)N[C@@H](Cc1ccccc1)C(=O)N[C@@H](CCCNC(=N)N)C(=O)c1nc2ccccc2s1 [MM3122, Ac-GQFR-kbt] . 2216

Give a short answer stating reported H1N1 Fold inhibition @ 1 μM for CC[C@H](C)[C@H](NC(C)=O)C(=O)N[C@@H](CCC(N)=O)C(=O)N[C@@H](C)C(=O)N[C@@H](CCCNC(=N)N)C(=O)c1nc2ccccc2s1 [MM3178, Ac-IQAR-kbt] . 91

Give a short answer stating reported H1N1 Fold inhibition @ 1 μM for N=C(N)NCCC[C@H](NC(=O)[C@H](Cc1ccccc1)NC(=O)[C@H](CCC(N)=O)NS(=O)(=O)c1ccccc1)C(=O)c1nc2ccccc2s1 [MF1101, PhSO2-QFR-kbt] . 1014

* * *

target_of_assay: TMPRSS2 (Homo sapiens, UniProt O15393, Q253D/R252D/R255K/S251D/S254D)
Sequence (O15393 109-492 S251D/R252D/Q253D/S254D/R255K limits assumed): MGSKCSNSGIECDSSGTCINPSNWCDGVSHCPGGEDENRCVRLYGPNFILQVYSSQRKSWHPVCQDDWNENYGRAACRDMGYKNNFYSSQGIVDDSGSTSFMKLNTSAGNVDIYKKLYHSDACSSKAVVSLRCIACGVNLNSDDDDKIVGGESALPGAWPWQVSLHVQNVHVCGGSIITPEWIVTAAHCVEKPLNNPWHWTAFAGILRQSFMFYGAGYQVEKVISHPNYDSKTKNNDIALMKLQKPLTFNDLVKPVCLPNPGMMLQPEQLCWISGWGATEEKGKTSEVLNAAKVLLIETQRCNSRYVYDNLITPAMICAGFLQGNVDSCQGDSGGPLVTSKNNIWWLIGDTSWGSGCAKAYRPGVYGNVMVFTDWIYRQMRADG
assay_explanation: Fluorogenic kinetic enzyme inhibitor assay, TMPRSS2
metric_name: pIC50
Please keep in mind that pIC50 is minus log10 of the molar concentration; only the number is needed.

1) CSCC[C@H](NC(C)=O)C(=O)N[C@@H](CCC(N)=O)C(=O)N[C@@H](Cc1ccccc1)C(=O)N[C@@H](CCCNC(=N)N)C(=O)c1nc2ccccc2s1 = 9.85
2) CC[C@H](C)[C@H](NC(C)=O)C(=O)N[C@@H](CCSC)C(=O)N[C@@H](Cc1ccccc1)C(=O)N[C@@H](CCCNC(=N)N)C(=O)c1nc2ccccc2s1 = 8.52
3) CC(=O)N1CCC[C@H]1C(=O)N[C@@H](CCC(N)=O)C(=O)N[C@@H](Cc1ccccc1)C(=O)N[C@@H](CCCNC(=N)N)C(=O)c1nc2ccccc2s1 = 10.22
4) N=C(N)NCCC[C@H](NC(=O)[C@H](Cc1ccccc1)NC(=O)[C@H](CCC(N)=O)NCc1ccccc1)C(=O)c1nc2ccccc2s1 = 9.00
5) CC[C@H](C)[C@H](NC(C)=O)C(=O)N[C@@H](CCC(=O)O)C(=O)N[C@@H](Cc1ccccc1)C(=O)N[C@@H](CCCNC(=N)N)C(=O)c1nc2ccccc2s1 = 9.96

Give a short answer stating reported pIC50 for "N=C(N)NCCC[C@H](NC(=O)[C@H](Cc1ccccc1)NC(=O)[C@H](CCC(N)=O)NCCc1ccccc1)C(=O)c1nc2ccccc2s1" . 9.49

Give a short answer stating reported pIC50 for "CC[C@H](C)[C@H](NC(C)=O)C(=O)N[C@H](C(=O)N[C@@H](Cc1ccccc1)C(=O)N[C@@H](CCCNC(=N)N)C(=O)c1nc2ccccc2s1)[C@@H](C)O" . 10.22

Give a short answer stating reported pIC50 for "N=C(N)NCCC[C@H](NC(=O)[C@H](Cc1ccccc1)NC(=O)[C@H](CCC(N)=O)NS(=O)(=O)C1CC1)C(=O)c1nc2ccccc2s1" . 9.57

Give a short answer stating reported pIC50 for "CC(=O)N[C@@H](Cc1c[nH]c2ccccc12)C(=O)N[C@@H](CC(C)C)C(=O)N[C@@H](Cc1ccccc1)C(=O)N[C@@H](CCCNC(=N)N)C(=O)c1nc2ccccc2s1" . 10.05

Give a short answer stating reported pIC50 for "CC[C@H](C)[C@H](NC(C)=O)C(=O)N[C@@H](CCC(N)=O)C(=O)N[C@@H](Cc1c[nH]c2ccccc12)C(=O)N[C@@H](CCCNC(=N)N)C(=O)c1nc2ccccc2s1" . 8.66

Where these numbers come from: paper doi:10.1101/2025.05.09.652710v1
